# merged literature set: Ki with Coagulation factor X (Homo sapiens, UniProt P00742)
READOUT KIND: Ki (nM)

Consider the following illustrative entries.
Lookup: Request the reported Ki associated with CC(C)N1CCC(N(C)S(=O)(=O)CCNC(=O)c2ccc(Cl)s2)CC1
Found: 7

Lookup: Request the reported Ki associated with N=C(N)c1ccc(CNC(=O)[C@H](CCC2CCNCC2)NC(=O)[C@@H](CCC2CCN(C(=O)C3CC3)CC2)NS(=O)(=O)Cc2ccccc2)cc1
Found: 2300

Lookup: Request the reported Ki associated with CC(C)N1CCC(NC(=O)c2cnc(-c3c(Cl)cccc3Cl)n2Cc2cc(-c3ccc(Cl)s3)on2)CC1
Found: 56

a = O=C(NCc1cc(Cl)ccc1-n1cnnn1)[C@@H]1CCCN1C(=O)[C@@H](CCC(=O)N1CCOCC1)NS(=O)(=O)Cc1ccccc1
b = Cc1ncc(CNc2ccc(C(=N)N)cc2)c(CF)c1OCc1cccc(C(=N)N)c1
Lookup: Recorded Ki values differ for a and b ; which one is higher? Pick one and reply with its label.
Found: b
(b: 378 nM, a: 3.8 nM)
